IC50 reference
- System: Raji/0
- Test name: Cytostatic effect (cell proliferation, Coulter count)
- Type: cell-based
- Condition details: Homo sapiens, cell number reduced by 50%, 68-72 hours, read-out: ID50 Raji/0

(Q) Specify reported IC50 for the compound shown: "[N-]=[N+]=N[C@H]1C[C@H](n2ccc(=O)[nH]c2=O)O[C@@H]1CO"
(A) ≥ 1000 µM

(Q) Specify reported IC50 for the compound shown: "CCc1cn([C@H]2C[C@H](N=[N+]=[N-])[C@@H](CO)O2)c(=O)[nH]c1=O"
(A) > 1000 µM

(Q) Specify reported IC50 for the compound shown: "CCc1cn([C@H]2C[C@H](F)[C@@H](CO)O2)c(=O)[nH]c1=O"
(A) > 1000 µM

(Q) Specify reported IC50 for the compound shown: "CCc1cn([C@H]2CC[C@@H](CO)O2)c(=O)[nH]c1=O"
(A) > 1000 µM
